# Target: T1, rHuman CD44/Fc Chimera, CF (human, UniProt P16070 21-220)
# T1 construct: Bought from R&D Systems; not shown: Fc of the bought chimera
# Assay Comment: ECL Multispot (MSD) assay; antigen spotted on plate, Fab in solution;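 further: fab bound 1 h at 20 °C, detected by TAG-labelled antibody electrochemiluminescence, signal relative to each well's blank, ratio of 4 or more marks a hit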
Metric Name: ECL signal
Form: value (number only, do not type unit).

1) Fab VH1-46_IGHD6-6*01_IGHJ1*01 S102A/S103P/S104F/H111F (APFF) & L6_IGKJ1*01 S28K (Fab, V domains shown, Fab made in E. coli; the variable domains were cloned into Plasmid A (CH1, His and Flag tags) and Plasmid C (kappa CL); also called APFF / S28K) VH: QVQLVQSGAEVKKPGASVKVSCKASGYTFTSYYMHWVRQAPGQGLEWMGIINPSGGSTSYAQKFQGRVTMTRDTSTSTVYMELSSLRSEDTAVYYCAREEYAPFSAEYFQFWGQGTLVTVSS VL: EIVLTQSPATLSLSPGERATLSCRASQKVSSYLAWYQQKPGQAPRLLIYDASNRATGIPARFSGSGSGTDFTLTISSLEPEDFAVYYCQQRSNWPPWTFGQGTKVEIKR: 464
2) Fab VH1-46_IGHD6-6*01_IGHJ1*01 S102A/S103P/S104F/H111F (APFF) & L6_IGKJ1*01 S28G (Fab, V domains shown, Fab made in E. coli; the variable domains were cloned into Plasmid A (CH1, His and Flag tags) and Plasmid C (kappa CL); also called APFF / S28G) VH: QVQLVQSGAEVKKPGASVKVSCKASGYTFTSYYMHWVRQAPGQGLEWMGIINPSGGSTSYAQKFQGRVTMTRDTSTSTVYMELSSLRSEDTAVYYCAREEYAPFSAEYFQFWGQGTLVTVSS VL: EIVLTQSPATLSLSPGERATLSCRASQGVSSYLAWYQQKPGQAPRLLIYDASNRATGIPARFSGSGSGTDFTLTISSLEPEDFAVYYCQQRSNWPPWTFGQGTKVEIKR: 436
3) Fab VH1-46_IGHD6-6*01_IGHJ1*01 S102A/S103P/S104F/H111F (APFF) & L6_IGKJ1*01 S28L (Fab, V domains shown, Fab made in E. coli; the variable domains were cloned into Plasmid A (CH1, His and Flag tags) and Plasmid C (kappa CL); also called APFF / S28L) VH: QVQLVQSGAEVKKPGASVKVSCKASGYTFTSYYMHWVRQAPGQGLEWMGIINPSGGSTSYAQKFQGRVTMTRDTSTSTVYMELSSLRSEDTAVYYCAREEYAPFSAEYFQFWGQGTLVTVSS VL: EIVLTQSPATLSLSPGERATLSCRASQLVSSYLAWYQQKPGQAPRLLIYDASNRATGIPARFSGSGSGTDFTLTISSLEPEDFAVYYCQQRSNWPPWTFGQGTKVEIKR: 365
4) Fab VH1-46_IGHD6-6*01_IGHJ1*01 S102A/S103P/S104F/H111F (APFF) & L6_IGKJ1*01 S28T (Fab, V domains shown, Fab made in E. coli; the variable domains were cloned into Plasmid A (CH1, His and Flag tags) and Plasmid C (kappa CL); also called APFF / S28T) VH: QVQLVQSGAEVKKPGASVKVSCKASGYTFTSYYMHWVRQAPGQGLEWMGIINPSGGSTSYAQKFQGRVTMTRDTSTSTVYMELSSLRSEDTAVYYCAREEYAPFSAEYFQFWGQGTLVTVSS VL: EIVLTQSPATLSLSPGERATLSCRASQTVSSYLAWYQQKPGQAPRLLIYDASNRATGIPARFSGSGSGTDFTLTISSLEPEDFAVYYCQQRSNWPPWTFGQGTKVEIKR: 368
5) Fab VH1-46_IGHD6-6*01_IGHJ1*01 S102A/S103P/S104F/H111F (APFF) & L6_IGKJ1*01 S28A (Fab, V domains shown, Fab made in E. coli; the variable domains were cloned into Plasmid A (CH1, His and Flag tags) and Plasmid C (kappa CL); also called APFF / S28A) VH: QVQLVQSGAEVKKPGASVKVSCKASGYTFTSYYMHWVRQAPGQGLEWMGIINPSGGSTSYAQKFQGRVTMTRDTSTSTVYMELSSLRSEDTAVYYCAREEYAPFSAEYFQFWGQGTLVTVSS VL: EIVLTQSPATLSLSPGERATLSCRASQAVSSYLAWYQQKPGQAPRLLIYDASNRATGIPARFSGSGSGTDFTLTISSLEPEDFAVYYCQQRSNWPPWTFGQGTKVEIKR: 502

Could you now consider this next binder?
Need ECL signal of Fab VH1-46_IGHD6-6*01_IGHJ1*01 S102A/S103P/S104F/H111F (APFF) & L6_IGKJ1*01 S28F (Fab, V domains shown, Fab made in E. coli; the variable domains were cloned into Plasmid A (CH1, His and Flag tags) and Plasmid C (kappa CL); also called APFF / S28F) VH: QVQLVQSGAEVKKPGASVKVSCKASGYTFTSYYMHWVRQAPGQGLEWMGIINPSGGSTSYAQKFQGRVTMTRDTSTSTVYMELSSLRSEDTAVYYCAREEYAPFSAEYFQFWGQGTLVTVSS VL: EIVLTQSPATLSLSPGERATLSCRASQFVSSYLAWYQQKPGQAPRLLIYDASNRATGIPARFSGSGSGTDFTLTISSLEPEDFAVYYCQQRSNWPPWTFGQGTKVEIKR , thanks.
402
